- measured target: LmjIPCS (inositol phosphorylceramide synthase from L. major) (Leishmania major, UniProt E9AFX2)
- Sequence (E9AFX2 whole entry): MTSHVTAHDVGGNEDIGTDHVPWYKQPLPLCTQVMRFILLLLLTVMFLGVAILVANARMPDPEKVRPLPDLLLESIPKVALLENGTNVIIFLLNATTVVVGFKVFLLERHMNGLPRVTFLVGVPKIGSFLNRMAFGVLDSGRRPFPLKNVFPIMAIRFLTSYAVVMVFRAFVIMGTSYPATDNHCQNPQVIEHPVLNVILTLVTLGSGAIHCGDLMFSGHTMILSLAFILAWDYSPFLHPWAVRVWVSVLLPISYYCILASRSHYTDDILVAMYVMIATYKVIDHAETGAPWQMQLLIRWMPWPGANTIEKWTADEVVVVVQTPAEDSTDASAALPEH
- protocol notes: biochemical
- Format: biochemical
- Design: dose or concentration left out as unconfirmed
- assay setup: NINDS set screen; read-out: inhibition LmjIPCS
test readout: inhibition
Answer as a quantity: numeral, then unit.

# molecule, test readout, observed
data = [
    ("NC(=O)c1ccccc1O [SALICYLAMIDE]", "inhibition", "0.588%"),
]

### Prompt Look up and report measured inhibition for this entry: O=C(CCc1ccc(O)cc1)c1c(O)cc(O)cc1O[C@@H]1O[C@H](CO)[C@@H](O)[C@H](O)[C@H]1O [PHLORIDZIN]
### Response 15%

### Prompt Supply measured inhibition of COC(=O)N/N=C/c1c[n+]([O-])c2ccccc2[n+]1[O-] [CARBADOX] in your reply.
### Response 12%

### Prompt Report inhibition, nothing else, for this molecule: COc1cc2cc3c4cc(OC)c(OC)cc4cc[n+]3c(C)c2cc1OC [CORALYNE]
### Response -5%

### Prompt Name the recorded inhibition of the molecule listed here: CCN(CC)CCNC(=O)c1cc(S(C)(=O)=O)ccc1OC [TIAPRIDE]
### Response -5%

### Prompt Using the record for CC[C@]12CCCN3CCc4c(n(c5ccccc45)[C@@](O)(C(=O)OC)C1)[C@@H]32 [VINCAMINE] , state its measured inhibition.
### Response -17%

### Prompt Using known records, supply inhibition for CCCCCCCCCCCCCCCC(=O)OC/C=C(C)/C=C/C=C(C)/C=C/C1=C(C)CCCC1(C)C [RETINYL PALMITATE]
### Response 18%

### Prompt Identify measured inhibition corresponding to CCC(=O)O[C@H]1[C@H](O[C@@H]2[C@@H](C)[C@H](O[C@H]3C[C@@](C)(OC)[C@@H](O)[C@H](C)O3)[C@@H](C)C(=O)O[C@H](CC)[C@@](C)(O)[C@H](O)[C@@H](C)C(=O)[C@H](C)C[C@@]2(C)O)O[C@H](C)C[C@@H]1N(C)C [ERYTHROMYCIN ESTOLATE]
### Response 22%

### Prompt Hello, please tell me recorded inhibition for this one: CCOc1ccc(Cc2nccc3cc(OCC)c(OCC)cc23)cc1OCC [ETHAVERINE]
### Response -7%

### Prompt Supply inhibition value. Item: CC(=O)/N=c1/sc(S(N)(=O)=O)nn1C [METHAZOLAMIDE]
### Response -4.59%

### Prompt Return reported inhibition. Input molecule: CCN(CCO)CCCC(C)Nc1ccnc2cc(Cl)ccc12 (centres unmarked) [HYDROXYCHLOROQUINE]
### Response 31%
